Data provenance is patent US8247211B2.

System: Enterococcus sp.
test: In vitro antibacterial evaluation: minimum inhibitory concentration (MIC), broth dilution method
Type: cell-based
settings: broth dilution, inoculum 5×10^5 CFU/mL, 18 hours at 35° C.
parameter: MIC Enterococcus faecalis (GC 2691) (mg/L)
Output spec: scalar in mg/L, unitless text.

Look up MIC Enterococcus faecalis (GC 2691): CC(c1ccccc1)C1NC(=O)CNC(=O)C(CO)NC(=O)C(C(O)C2CNC(=N)N2C2OC(CO)C(O)C(O)C2O)NC(=O)C(C(O)C2CNC(=N)N2)NC(=O)C(Cc2ccc(OC3OC(CO)C(OC4OC(COCC=C(c5ccccc5)c5ccccc5)C(O)C(O)C4O)C(O)C3O)cc2)NC1=O (centres unmarked)
4

* * *

Test system: Streptococcus sp.
test: In vitro antibacterial evaluation: minimum inhibitory concentration (MIC), broth dilution method
Assay type: cell-based
settings: Streptococcus pneumoniae (GC 1894); 18 hours at 35° C.
parameter: MIC Streptococcus pneumoniae (GC 1894) (µg/mL)
Number only, in µg/mL; omit the unit.

What measured MIC Streptococcus pneumoniae (GC 1894) goes with CC(c1ccccc1)C1NC(=O)CNC(=O)C(CO)NC(=O)C(C(O)C2CNC(=N)N2C2OC(CO)C(O)C(O)C2O)NC(=O)C(C(O)C2CNC(=N)N2)NC(=O)C(Cc2ccc(OC3OC(CO)C(OC4OC5COC6(CCCCC6C)OC5C(O)C4O)C(O)C3O)cc2)NC1=O (centres unmarked) [Example 204] ?
0.25

* * *

Test system: Staphylococcus sp.
test: In vitro antibacterial evaluation: minimum inhibitory concentration (MIC), broth dilution method
Type: cell-based
settings: broth dilution, 5×10^5 CFU/mL, 18 hours at 35° C.
parameter: MIC Coagulase Negative Staphylococcus (GC 4549) (µg/mL)
// note: answer is a bare numeric in µg/mL

Here is how some compounds turned out for MIC Coagulase Negative Staphylococcus (GC 4549).
compound="COc1cccc(C2OC3C(OC4C(CO)OC(Oc5ccc(CC6NC(=O)C(C(C)c7ccccc7)NC(=O)CNC(=O)C(CO)NC(=O)C(C(O)C7CNC(=N)N7C7OC(CO)C(O)C(O)C7O)NC(=O)C(C(O)C7CNC(=N)N7)NC6=O)cc5)C(O)C4O)OC(CO)C(O)C3O2)c1 (single isomer, unassigned) [Example 137a]" value_measured=8
compound="CCOc1cc(C2OCC3OC(OC4C(CO)OC(Oc5ccc(CC6NC(=O)C(C(C)c7ccccc7)NC(=O)CNC(=O)C(CO)NC(=O)C(C(O)C7CNC(=N)N7C7OC(CO)C(O)C(O)C7O)NC(=O)C(C(O)C7CNC(=N)N7)NC6=O)cc5)C(O)C4O)C(O)C(O)C3O2)ccc1OC (stereo not shown)" value_measured=8
compound="CC(c1ccccc1)C1NC(=O)CNC(=O)C(CO)NC(=O)C(C(O)C2CNC(=N)N2C2OC(CO)C(O)C(O)C2O)NC(=O)C(C(O)C2CNC(=N)N2)NC(=O)C(Cc2ccc(OC3OC(CO)C(OC4OC(CO)C(O)C5OC(c6ccc(-c7ccsc7)cc6)OC45)C(O)C3O)cc2)NC1=O (stereo not shown) [Example 164a]" value_measured=4

Alright, here's another compound for you.
Quick one: MIC Coagulase Negative Staphylococcus (GC 4549) for Cc1cc(C2OCC3OC(OC4C(CO)OC(Oc5ccc(CC6NC(=O)C(C(C)c7ccccc7)NC(=O)CNC(=O)C(CO)NC(=O)C(C(O)C7CNC(=N)N7C7OC(CO)C(O)C(O)C7O)NC(=O)C(C(O)C7CNC(=N)N7)NC6=O)cc5)C(O)C4O)C(O)C(O)C3O2)ccc1[N+](=O)[O-] (stereo not shown) ?
2
